Every entry's value here was drawn from patent US20120165346A1.

- Assayed system: human β-Secretase (AA 1-AA 460), sBACE-Fc (Homo sapiens, UniProt P56817)
- Construct: soluble part of the human β-Secretase (AA 1-AA 460) was cloned; Fc domain of IgG1; made in house
- Sequence (P56817 22-460): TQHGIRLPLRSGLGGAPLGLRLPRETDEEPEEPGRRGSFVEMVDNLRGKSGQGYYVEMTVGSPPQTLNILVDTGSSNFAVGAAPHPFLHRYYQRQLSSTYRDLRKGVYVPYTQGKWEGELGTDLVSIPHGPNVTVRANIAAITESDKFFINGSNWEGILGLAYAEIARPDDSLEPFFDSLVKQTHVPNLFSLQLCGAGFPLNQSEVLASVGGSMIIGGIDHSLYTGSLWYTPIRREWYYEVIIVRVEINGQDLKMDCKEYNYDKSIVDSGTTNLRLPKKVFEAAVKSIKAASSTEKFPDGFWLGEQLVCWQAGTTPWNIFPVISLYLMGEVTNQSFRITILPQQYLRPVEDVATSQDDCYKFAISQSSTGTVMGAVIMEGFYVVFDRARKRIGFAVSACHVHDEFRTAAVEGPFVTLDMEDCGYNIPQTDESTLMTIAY
- Test summary: TR-FRET assay
- Format: biochemical
- Measurement conditions: enzyme 2.7 μg/ml, substrate 100 nM, pH4.5, 15 minutes at r.t.
Measured attribute: IC50 (µM)

[1] COc1cncc(-c2cccc(C3(c4cc(C)c(=O)n(C)c4)N=C(N)c4c(F)cccc43)c2)c1 (centres unmarked) [Example 20]
[2] Cc1cc(C2(c3cccc(-c4cncc(C#N)c4)c3)N=C(N)c3c(F)cccc32)cn(C(C)C)c1=O (centres unmarked) [Example 5]
// compare measured IC50, left 1 , right 2 , return larger Choose, then provide that item's label. 2

[P] CC#Cc1cccc(-c2cccc([C@@]3(c4cc(C)c(=O)n(CC)c4)N=C(N)c4c(F)cccc43)c2)n1 [Example 24]
[Q] Cn1cc(C2(c3cccc(-c4cncc(C#N)c4)c3)N=C(N)c3c(F)cccc32)cc(C(F)(F)F)c1=O (centres unmarked) [Example 10]
[R] CC#Cc1cncc(-c2cc(C3(c4cc(C)c(=O)n(CC)c4)N=C(N)c4c(F)cccc43)ccn2)c1 (single isomer, unassigned) [Example 26a]
Order the records by IC50, with each subsequent value no larger than the one before. Order the labels as requested and give them as your answer. R, P, Q

[P] Cc1cc(C2(c3cccc(-c4cncc(F)c4)c3)N=C(N)c3c(F)cccc32)cn(C(C)C)c1=O (centres unmarked) [Example 7]
[Q] Cc1cc(C2(c3cccc(-c4cncc(C#N)c4)c3)N=C(N)c3c(F)cccc32)cn(C)c1=O (centres unmarked) [Example 17]
Of the pair P and Q , name the member with the lesser recorded IC50. The response must carry the label of the picked entry. P
(P: 0.038 µM, Q: 0.066 µM)

[a] CC#Cc1cncc(-c2cc(C3(c4cc(C)c(=O)n(CC)c4)N=C(N)c4c(F)cccc43)ccn2)c1 (centres unmarked) [Example 2]
[b] Cc1cc(C2(c3ccnc(-c4cncc(Cl)c4)c3)N=C(N)c3c(F)cccc32)cn(C)c1=O (centres unmarked) [Example 15]
[c] Cc1cc(C2(c3cccc(-c4cncc(Cl)c4)c3)N=C(N)c3c(F)cccc32)cn(C)c1=O (centres unmarked) [Example 18]
Rank by IC50 (largest to smallest). Response format: the labels, sorted as the prompt asks. b, a, c
(b: 0.104 µM, a: 0.057 µM, c: 0.026 µM)

---

- Assayed system: human β-Secretase (AA 1-AA 460), sBACE-Fc (Homo sapiens, UniProt P56817)
- Construct: soluble part of the human β-Secretase (AA 1-AA 460) was cloned; Fc domain of IgG1; made in house
- Test summary: TR-FRET assay
- Type: biochemical
- Measurement conditions: enzyme 2.7 μg/ml, substrate 100 nM, pH4.5, 15 minutes at r.t.
pIC50: −log10 of the molar value.
Measured attribute: pIC50

Consider the reported pIC50 for these compounds:
Give pIC50 for the following compound: Cn1cc(C2(c3cccc(-c4cncc(F)c4)c3)N=C(N)c3c(F)cccc32)cc(C(F)(F)F)c1=O (stereo not shown) 7.21

Identify pIC50 associated with the compound CC#Cc1cncc(-c2cc(C3(c4cc(CC)c(=O)n(CC)c4)N=C(N)c4c(F)cccc43)ccn2)c1 (stereo not shown) 7.23

[I] Cn1cc(C2(c3cccc(-c4cncnc4)c3)N=C(N)c3c(F)cccc32)cc(C(F)(F)F)c1=O (stereo not shown)
[II] CCn1cc([C@]2(c3cccc(-c4cncc(C)c4F)c3)N=C(N)c3c(F)cccc32)cc(C)c1=O
Which shows the larger pIC50 value: I or II ? Respond using the label that marks the chosen record. II
